Test system: A549 cancer cells
Experiment: Cytotoxic activity against A549 cancer cells (sulforhodamin B method)
Format: cell-based
Details: Homo sapiens; A549 cells, SRB method, 48 hours; read-out: ED50, cytotoxic activity against A549
testReadout: IC50

1. CCCCCCCC/C=C\CCCCCCCC(=O)OC(CC=C(C)C)C1=CC(=O)c2c(O)ccc(O)c2C1=O (stereo not drawn)
> 20 µg/mL
2. CCCCCCCCCC(OC(=O)CCCCCCC)C1=CC(=O)c2c(O)ccc(O)c2C1=O (stereo not drawn)
> 20 µg/mL
3. CCCCCCCCCCCCC(OC(=O)CCC)C1=CC(=O)c2c(O)ccc(O)c2C1=O (stereo not drawn)
> 20 µg/mL
4. CCCCCC=CCC=CCCCCCCCC(=O)OC(CC=C(C)C)C1=CC(=O)c2c(O)ccc(O)c2C1=O (stereo not drawn)
> 20 µg/mL

// each listed molecule needs a value for IC50
1. COC(CCC(C)C)C1=CC(=O)c2c(O)ccc(O)c2C1=O (stereo not drawn)
2. CCCCCCCCCCCCC(OC(=O)CCCCC)C1=CC(=O)c2c(O)ccc(O)c2C1=O (stereo not drawn)
3. CCC/C=C/C(=O)OC(CC=C(C)C)C1=CC(=O)c2c(O)ccc(O)c2C1=O (stereo not drawn)
4. CC(C)=CCC(OC(=O)Cc1ccccc1)C1=CC(=O)c2c(O)ccc(O)c2C1=O (stereo not drawn)
5. CC(C)=CCC(OC(=O)/C=C(C)/C=C/C=C(C)/C=C/C1=C(C)CCCC1(C)C)C1=CC(=O)c2c(O)ccc(O)c2C1=O (stereo not drawn)

Result:
1. 1.5 µg/mL
2. > 20 µg/mL
3. 1.6 µg/mL
4. 1.1 µg/mL
5. > 20 µg/mL

----------
Give measured responders at 15 µmol/kg for each item. Keep answers brief.
Tested on: S-180 sarcoma cells
Assay: Animal experiment using Sarcoma S-180 cells (survival of mouse)
Assay type: in vivo, male ICR mouse
Conditions: ip, 1200 h; S-180 ICR mouse, intraperitoneal, daily dose 15 μmole (mg/kg/day given per compound), 7 to 8 injections; read-out: Number of mouse survived for 50 days (converted)
Numbers only, in %.

Would you please look over these solved cases?
1) CC(C)CCOC(CCC(C)C)C1=CC(=O)c2c(O)ccc(O)c2C1=O (stereo not drawn)
0
2) CCCCCCCC(=O)OC(CCCCC)C1=CC(=O)c2c(O)ccc(O)c2C1=O (stereo not drawn)
0

Now look at this entry.
Query: Provide value of responders at 15 µmol/kg for this record tested with S-180 sarcoma cells: CC(C)=CCC(OC(=O)C=C(C)C=CC=C(C)C=CC1=C(C)CCCC1(C)C)C1=CC(=O)c2c(O)ccc(O)c2C1=O (stereo not drawn)
Result: 0

Source listed as patent US5696276A.
